assay: Compound stability in rat liver microsomes; format: in vitro ADME; settings: pH 7.4; rat liver microsomes 0.5 mg protein/mL, compound 5 μM, NADPH, 37° C.
readout type: half-life at 5 μM (h)

Some entries whose results are on file:
COc1ncc(-c2ccn3ncc(C#CC(C)O)c3n2)cc1NS(=O)(=O)c1ccc(F)cc1F (stereo not drawn) ... 3.61
COc1ncc(-c2ccn3ncc(C#CC(C)(C)O)c3c2)cc1NS(=O)(=O)c1ccc(F)cc1F ... 21
COc1ncc(-c2ccn3ncc(C#CCO)c3c2)cc1NS(=O)(=O)c1ccc(F)cc1F ... 2.56
COc1ncc(-c2ccn3ncc(C#N)c3c2)cc1NS(=O)(=O)c1ccc(F)cc1F ... 9.59

(1) COc1ncc(-c2ccn3ncc(C#CCO)c3n2)cc1NS(=O)(=O)c1ccc(F)cc1F
(2) CC#Cc1cnn2ccc(-c3cnc(OC)c(NS(=O)(=O)c4ccc(F)cc4F)c3)nc12
Input: Select one. Lower half-life at 5 μM: 1 or 2 Indicate which entry you chose by stating its label.
Output: 2
(2: 1.54 h, 1: 2.92 h)
